tested on: Saccharomyces cerevisiae; experiment: protein stability index of tFT-peptide fusion (C-terminal peptide) (PSI (0-1 scale)); higher = more stable (slower turnover); conditions: genetic background: wild type; temperature: 30 C
Our labelling divides records by protein stability index into ranges: label 0 = under 0.2, label 1 = from 0.2 up to 0.4, label 2 = 0.4 and over

Hi there! Could you help me figure out the category for VRGLGFRWVWGW please?
label 2

Hi there! Could you help me figure out the category for VVFVRLGWMRAC please?
label 0

Hi there! Could you help me figure out the category for SFCSFVFVTFVL please?
label 1

Hi there! Could you help me figure out the category for GLFGFASPPPPS please?
label 2

Hi there! Could you help me figure out the category for HLRWYITGIVWF please?
label 1

Hi there! Could you help me figure out the category for LPALPFPIPTFA please?
label 0

Hi there! Could you help me figure out the category for LHLSSFVILLEL please?
label 1

Hi there! Could you help me figure out the category for GVSLRVFVVSVC please?
label 0

* * *

Give protein stability index for every item shown.
tested on: Saccharomyces cerevisiae; assay: protein stability index of tFT-peptide fusion (C-terminal peptide) (PSI (0-1 scale)); higher = more stable (slower turnover); conditions: genetic background: wild type; temperature: 30 C

Example entries and their recorded answers appear below.
| Query Sequence | protein stability index |
| --- | --- |
| YKGRYDCRVGGR | 0.682 |
| VSLIYKTIKNRV | 0.517 |
| GELPGELYKFWL | 0.754 |
| PFSTVDLATAYP | 0.712 |
| CITRIGSYGEET | 0.679 |

Please supply protein stability index for each of the following items, keeping them in order.
1. WSVVRVGGCGAR
2. SEPPPPTPPPLP
3. PPPRTYLPRPRL
4. GDSPSGKPAERT
5. PQAQCTALLTQR
6. PPSPPPPPPRPP
7. PPPSPTSPPPPS
8. VKTLNQKCIKKN

0.699
0.679
0.764
0.661
0.659
0.64
0.69
0.719

Please supply protein stability index for each of the following items, keeping them in order.
1. PPAPFAICRTRS
2. LIWGRGGSRTGG
3. LPPPPTFPPPRS
4. GWRGDTSGGGWR
5. EVRDLSQFMKRY
6. LPPCPLFPPVHF
7. VIRIRLSCSVDV

1: 0.654; 2: 0.747; 3: 0.831; 4: 0.655; 5: 0.727; 6: 0.757; 7: 0.367

Please supply protein stability index for each of the following items, keeping them in order.
1. SVFSVVLSLSGS
2. NAYRLSCGDNTN
3. VPVGSWVGIGGK
4. RLVLTHVSRCWQ
5. YVRHDKLILSFC
6. HPSPFTPPTNPY
7. GFHSVVMTFLRY

[0.706, 0.683, 0.692, 0.673, 0.489, 0.733, 0.63]

Please supply protein stability index for each of the following items, keeping them in order.
1. NLGFTTSWSFDL
2. FRDLRSSVLVLP
3. KKKKNKNKRTRK
4. RKKKSNLMDDDD
5. LLPISFVSPPPG
6. RPDRPSGLLPRP

0.766
0.66
0.662
0.696
0.691
0.701

* * *

system: Saccharomyces cerevisiae; assay: protein stability index of tFT-peptide fusion (C-terminal peptide) (PSI (0-1 scale)); higher = more stable (slower turnover); conditions: genetic background: wild type; temperature: 30 C
Decision: protein stability index compared against 0.7; not below it gives Met, below it gives Not met.

Please review the entries below; each comes with its answer.
| Query Sequence | Qualitative Label |
| --- | --- |
| AELILETSYDKF [MRX1 C-terminal 12 aa] | Met |
| FIRKIYSAIKVE [TMN2 C-terminal 12 aa] | Not met |
| RRMKLKERKRTT [YBL029W C-terminal 12 aa] | Not met |
| LLILLVLFSKFK [VTI1 C-terminal 12 aa] | Not met |
| RVRRRLFAPEST [SLD3 C-terminal 12 aa] | Met |
| SDQKGGRSVSTS [YLR001C C-terminal 12 aa] | Met |

hey, is protein stability index for this one >= 0.7? PLALFYSHLILL [YGR151C C-terminal 12 aa]
Not met

hey, is protein stability index for this one >= 0.7? PPPPSRKCGTPK [LDB17 C-terminal 12 aa]
Met

hey, is protein stability index for this one >= 0.7? IKTIVEAMDVLS [PCC1 C-terminal 12 aa]
Not met

hey, is protein stability index for this one >= 0.7? TRRVAARKGKLS [UTR5 C-terminal 12 aa]
Not met

hey, is protein stability index for this one >= 0.7? AYVLFYHRVYGV [DOA4 C-terminal 12 aa]
Not met

hey, is protein stability index for this one >= 0.7? TDYTRIIKMQSS [SWD1 C-terminal 12 aa]
Not met

* * *

test system: Saccharomyces cerevisiae; assay: protein stability index of tFT-peptide fusion (C-terminal peptide) (PSI (0-1 scale)); higher = more stable (slower turnover); conditions: genetic background: wild type; temperature: 30 C
Give protein stability index for every item shown.
One number for each entry.

Example entries and their recorded answers appear below.
| Query Sequence | Experimental Endpoint | Value Measured |
| --- | --- | --- |
| STQDIRTTKRVA | protein stability index | 0.681 |
| VRERGAGAVAGS | protein stability index | 0.715 |
| VSWRGSFQGIYG | protein stability index | 0.685 |
| EGEVAGRWCGRG | protein stability index | 0.69 |
| GVKMVHERHNRV | protein stability index | 0.665 |

Please supply protein stability index for each of the following items, keeping them in order.
1. APPDQPEEGTRA
2. GCLSRLCKGKVM
3. SPVRLSSVPRPY
4. PLFSLRPSIPFS
5. WKNIHGVFVFVM
6. VGWRGTGCGRVW

1: 0.633; 2: 0.599; 3: 0.683; 4: 0.72; 5: 0.403; 6: 0.688

Please supply protein stability index for each of the following items, keeping them in order.
1. CLLRPTPRPATP
2. GCRCSSGLGGFW
3. ALFISLAIWNWS
4. VVPSLLVLPFFC
5. HVLRVWKMCVLE
6. FRVFLGHLITRK
7. PPSLPRPPAFAP
8. KRFQDRPRPGAH

[0.779, 0.649, 0.232, 0.51, 0.586, 0.727, 0.689, 0.687]

Please supply protein stability index for each of the following items, keeping them in order.
1. SSCLRQGVGACG
2. MCNLSLSCEGLG
3. PTPPPLLTRPLP
4. GVAKRGREGCWS
5. KVLLYWRHAQRQ
6. MRSLLDPLSNSC

1. 0.702
2. 0.665
3. 0.709
4. 0.569
5. 0.548
6. 0.78

Please supply protein stability index for each of the following items, keeping them in order.
1. EERENKKKLDQT
2. RTPRGCSLAYRA
3. YSLLSAHLVPIA
4. WSRLAGMGRGGA
5. VRRVHAMVLLGG

0.659
0.72
0.614
0.764
0.65

* * *

system: Saccharomyces cerevisiae; assay: protein stability index of tFT-peptide fusion (C-terminal peptide) (PSI (0-1 scale)); higher = more stable (slower turnover); settings: genetic background: das1 deletion; temperature: 30 C
Decision: protein stability index compared against 0.7; not below it gives class 1, below it gives class 0.

Please review the entries below; each comes with its answer.
| Query Sequence | Qualitative Label |
| --- | --- |
| LDIFCLIFRKRT [YPR076W C-terminal 12 aa] | class 0 |
| VDESWLPETYKK [IRC22 C-terminal 12 aa] | class 1 |
| TKWWLHYYRKLR [SBE2 C-terminal 12 aa] | class 1 |
| TFCRLCSHIQYF [YAL059C-A C-terminal 12 aa] | class 1 |
| HSRASVQSHPQH [DAL80 C-terminal 12 aa] | class 1 |

hey, is protein stability index for this one >= 0.7? DWEAIDAQTIKL [FAT1 C-terminal 12 aa]
class 1

hey, is protein stability index for this one >= 0.7? SAIENYRKAYGI [URA10 C-terminal 12 aa]
class 0

hey, is protein stability index for this one >= 0.7? KLIHIPIRYVIV [SSS1 C-terminal 12 aa]
class 0

hey, is protein stability index for this one >= 0.7? DDDDDDDGQITA [YHR131C C-terminal 12 aa]
class 0

hey, is protein stability index for this one >= 0.7? NFTTNEYFIHTS [YNL226W C-terminal 12 aa]
class 1

hey, is protein stability index for this one >= 0.7? NLEFETEHNVTN [NDC80 C-terminal 12 aa]
class 0

hey, is protein stability index for this one >= 0.7? DHDVSLEEVINI [MCY1 C-terminal 12 aa]
class 1
